System: A549
Protocol Summary: Antiproliferative activity against human A549 cells after 48 hrs by MTT assay
Format: functional, cell-based
Assay Conditions: A549, 48 h
pIC50: −log10 of the molar value.
Result Type: pIC50

## Input Need pIC50, item C[C@@H]1C(C=O)=C[C@H]2[C@@H](c3cc(Cl)ccc3O[C@@H]2C)[C@@]12C(=O)Nc1ccccc12
## Output < 4.52

----------
System: A549
Protocol Summary: Antiproliferative activity against human A549 cells after 48 hrs by MTT assay
Assay type: functional, cell-based
Assay Conditions: A549, 48 h
pIC50: −log10 of the molar value.
Result Type: pIC50

Before answering, review these 3 worked examples.
INSERT INTO measurements (compound_smiles, result_type, test_value) VALUES
  ('C[C@@H]1C(C=O)=C[C@H]2[C@@H](c3cc(F)ccc3O[C@@H]2C)[C@@]12C(=O)Nc1ccccc12', 'pIC50', '< 4.52'),
  ('Cc1ccc2c(c1)[C@@H]1[C@H](C=C(C=O)[C@@H](C)[C@]13C(=O)Nc1ccccc13)[C@@H](C)O2', 'pIC50', '< 4.52'),
  ('C[C@@H]1C(C=O)=C[C@H]2[C@@H](c3ccccc3N[C@@H]2C)[C@@]12C(=O)Nc1ccccc12', 'pIC50', '< 4.52');

## Input Given the compound C[C@@H]1Oc2ccc3ccccc3c2[C@@H]2[C@@H]1C=C(C=O)[C@@H](C)[C@]21C(=O)Nc2ccccc21 , what is its reported pIC50?
## Output 4.74
